Test system: Candida albicans
Test: Anti-fungal activity against Candida albicans ATCC 90028 after 48 hrs by broth microdilution method
Format: functional
Details: ATCC 90028, 48 h
hey, just use True if measured MIC is less than 30 µg/mL, otherwise False

Known results for compounds:
compound="CC(C)CC(=O)OC(Cn1ccnc1)c1ccc(Cl)cc1.Cl (stereo unspecified)" target_or_test_system="Candida albicans" class_label=True
compound="Cl.O=C(CCCc1ccccc1)OC(Cn1ccnc1)c1ccccc1 (stereo unspecified)" target_or_test_system="Candida albicans" class_label=True

Given the entry CCCCC(=O)OC(Cn1ccnc1)c1ccccc1.Cl (stereo unspecified) , would its reported MIC be below 30 µg/mL?
True

Please indicate whether the reported MIC of CCCC(=O)OC(Cn1ccnc1)c1ccc(Cl)cc1.Cl (stereo unspecified) is strictly below 30 µg/mL.
True

Item Cl.O=C(OC(Cn1ccnc1)c1ccccc1)C1CCCCC1 (stereo unspecified) : MIC beneath 30 µg/mL, strictly?
True

Does CC(=O)OC(Cn1ccnc1)c1ccc(Cl)cc1.Cl (stereo unspecified) have MIC strictly under 30 µg/mL?
False

Given the entry CC(C)CC(=O)OC(Cn1ccnc1)c1ccccc1.Cl (stereo unspecified) , would its reported MIC be below 30 µg/mL?
True

* * *

Test system: Pseudomonas aeruginosa
Test: Antibacterial activity against Pseudomonas aeruginosa ATCC 27853 after 18 to 24 hrs by broth microdilution method
Assay type: functional
Provide the reported MIC of each item.
One number for each entry, in µg/mL.

Below, each entry is followed by its recorded MIC result.
compound="CC(=O)CCC(=O)OC(Cn1ccnc1)c1ccc(Cl)cc1.Cl (stereo unspecified)" unit_string=µg/mL result=256
compound="Cl.O=C(OC(Cn1ccnc1)c1ccc(Cl)cc1)C1CCCCC1 (stereo unspecified)" unit_string=µg/mL result=1020

Quick batch: MIC for everything below.
1. CC(=O)OC(Cn1ccnc1)c1ccccc1.Cl (stereo unspecified)
2. Cl.O=C(OC(Cn1ccnc1)c1ccc(Cl)cc1)c1ccc(-c2ccccc2)cc1 (stereo unspecified)
3. O=C(O)c1cn(C2CC2)c2cc(N3CCNCC3)c(F)cc2c1=O
4. Cl.O=C(OC(Cn1ccnc1)c1ccccc1)c1ccccc1 (stereo unspecified)

1: 256; 2: 256; 3: 1.5; 4: 256

* * *

Test system: Pseudomonas aeruginosa
Assay: Antibacterial activity against Pseudomonas aeruginosa ATCC 27853 after 18 to 24 hrs by broth microdilution method
Assay type: functional
measurement.name: MIC (µg/mL)
One number for each entry, in µg/mL.

// solved cases for MIC follow
compound="OC(Cn1ccnc1)c1ccccc1 (stereo unspecified)" result=512
compound="CC(C)CC(=O)OC(Cn1ccnc1)c1ccc(Cl)cc1.Cl (stereo unspecified)" result=256
compound="CC(C)CC(=O)OC(Cn1ccnc1)c1ccccc1.Cl (stereo unspecified)" result=256

Report MIC for every entry below.
1. CCCC(=O)OC(Cn1ccnc1)c1ccc(Cl)cc1.Cl (stereo unspecified)
2. CCCCC(=O)OC(Cn1ccnc1)c1ccccc1.Cl (stereo unspecified)
3. Cl.O=C(CCC(=O)c1ccccc1)OC(Cn1ccnc1)c1ccccc1 (stereo unspecified)

[256, 256, 256]

* * *

Answer each item with its documented log10 of MIC.
Test system: Staphylococcus aureus
Test: Antibacterial activity against Staphylococcus aureus ATCC 29213 after 18 to 24 hrs by broth microdilution method
Type: functional
Recorded MIC (log10, µg/mL)

molecule="CC(=O)CCC(=O)OC(Cn1ccnc1)c1ccccc1.Cl (configuration not stated)" result=2.71

I would be grateful if you could provide log10 of MIC for each of the following entries.
1. CCC(=O)OC(Cn1ccnc1)c1ccc(Cl)cc1.Cl (configuration not stated)
2. CCCC(=O)OC(Cn1ccnc1)c1ccccc1.Cl (configuration not stated)
3. OC(Cn1ccnc1)c1ccc(Cl)cc1 (configuration not stated)
4. Cl.O=C(OC(Cn1ccnc1)c1ccccc1)c1ccccc1 (configuration not stated)
5. Cl.O=C(CCCc1ccccc1)OC(Cn1ccnc1)c1ccccc1 (configuration not stated)
6. CC(=O)CCC(=O)OC(Cn1ccnc1)c1ccc(Cl)cc1.Cl (configuration not stated)
7. Cl.O=C(OC(Cn1ccnc1)c1ccccc1)c1ccc(-c2ccccc2)cc1 (configuration not stated)
8. Cl.O=C(CCC(=O)c1ccccc1)OC(Cn1ccnc1)c1ccc(Cl)cc1 (configuration not stated)

1. 2.41
2. 2.71
3. 1.81
4. 1.81
5. 0.90
6. 2.71
7. 2.71
8. 0.90
